// provenance: the array DNA melting data of Ke et al. (doi:10.1101/2024.01.08.574731)

experiment: folding enthalpy; higher = less favourable; fluorescence melt of hairpins on a sequencing array, two-state fit; settings: sodium 0.088 M

# Chain sequence, Units text, folding enthalpy
rows = [
    ("GGATAGGGAAACCTACCC ((.((((....)))).))", "kcal/mol", -21.9),
    ("GGCTACCCGAAAGGGGCC (((..(((....))))))", "kcal/mol", -18.9),
    ("GTACGCGAAAGCGTTAC ((((((....))).)))", "kcal/mol", -11),
    ("GCAGCCGAAAGGCATGC ((((((....))).)))", "kcal/mol", -19.6),
    ("GATAGGAAACTATC (((((....)))))", "kcal/mol", -15.4),
    ("GATCGATGAGTCGATC ((((((....))))))", "kcal/mol", -41.6),
    ("GCGCGGCGAAAGCATCGC (((..((....))..)))", "kcal/mol", -20.6),
    ("GATCCCATGTGGGATC ((((((....))))))", "kcal/mol", -38.2),
    ("GATACGCGAAAGCGCATC (((.(((....))).)))", "kcal/mol", -20.2),
    ("GATCCCGAAAGGGACATC ((((((....)))..)))", "kcal/mol", -9.22),
    ("CGGATCGGAAACGACCCG (((.(((....))).)))", "kcal/mol", -38.1),
    ("GATCTTTCTGAAGATC ((((((....))))))", "kcal/mol", -36),
    ("GCATTAGGAAACCAATGC (((((.(....).)))))", "kcal/mol", -29.6),
    ("ATTTCGAAAGAAAT (((((....)))))", "kcal/mol", -16),
    ("CGGCTCGGAAACGACCCG (((.(((....))).)))", "kcal/mol", -29.4),
    ("GTGTCCGAAAGGAGCAC ((((((....))).)))", "kcal/mol", -23.9),
    ("GATCAATCCGTTGATC ((((((....))))))", "kcal/mol", -32.5),
    ("GGAGAACGAAAGTTATCC (((.(((....))).)))", "kcal/mol", -37.2),
    ("GATCCCCCAAGGGATC ((((((....))))))", "kcal/mol", -38.6),
    ("GTAGCTGGAAACAGCCAC ((.((((....)))).))", "kcal/mol", -14.3),
    ("CGCGGACGGCTCCGCG ((((((....))))))", "kcal/mol", -23.5),
    ("GCACTGTCGAAAGACTGC (((..(((....))))))", "kcal/mol", -15.9),
    ("GATCGCATGTGCGATC ((((((....))))))", "kcal/mol", -37.8),
    ("GCCGAGGGAAACCCCAGC ((.(.((....)).).))", "kcal/mol", -11.3),
    ("GCTTCGCGAAAGCAGAGC (((..((....))..)))", "kcal/mol", -18.2),
    ("GATCATATCGATGATC ((((((....))))))", "kcal/mol", -34.3),
]
